molecular target: recombinant NR1/NR2B receptors (Rattus norvegicus, UniProt P35439+Q00960); test: Patch-clamp, inhibition of glutamate responses of recombinant NMDA receptors in transfected HEK293 cells; conditions: calculated from relative inhibition with Hill's coefficient 1.2
Sequence (Q00960 27-1482, other chains not shown): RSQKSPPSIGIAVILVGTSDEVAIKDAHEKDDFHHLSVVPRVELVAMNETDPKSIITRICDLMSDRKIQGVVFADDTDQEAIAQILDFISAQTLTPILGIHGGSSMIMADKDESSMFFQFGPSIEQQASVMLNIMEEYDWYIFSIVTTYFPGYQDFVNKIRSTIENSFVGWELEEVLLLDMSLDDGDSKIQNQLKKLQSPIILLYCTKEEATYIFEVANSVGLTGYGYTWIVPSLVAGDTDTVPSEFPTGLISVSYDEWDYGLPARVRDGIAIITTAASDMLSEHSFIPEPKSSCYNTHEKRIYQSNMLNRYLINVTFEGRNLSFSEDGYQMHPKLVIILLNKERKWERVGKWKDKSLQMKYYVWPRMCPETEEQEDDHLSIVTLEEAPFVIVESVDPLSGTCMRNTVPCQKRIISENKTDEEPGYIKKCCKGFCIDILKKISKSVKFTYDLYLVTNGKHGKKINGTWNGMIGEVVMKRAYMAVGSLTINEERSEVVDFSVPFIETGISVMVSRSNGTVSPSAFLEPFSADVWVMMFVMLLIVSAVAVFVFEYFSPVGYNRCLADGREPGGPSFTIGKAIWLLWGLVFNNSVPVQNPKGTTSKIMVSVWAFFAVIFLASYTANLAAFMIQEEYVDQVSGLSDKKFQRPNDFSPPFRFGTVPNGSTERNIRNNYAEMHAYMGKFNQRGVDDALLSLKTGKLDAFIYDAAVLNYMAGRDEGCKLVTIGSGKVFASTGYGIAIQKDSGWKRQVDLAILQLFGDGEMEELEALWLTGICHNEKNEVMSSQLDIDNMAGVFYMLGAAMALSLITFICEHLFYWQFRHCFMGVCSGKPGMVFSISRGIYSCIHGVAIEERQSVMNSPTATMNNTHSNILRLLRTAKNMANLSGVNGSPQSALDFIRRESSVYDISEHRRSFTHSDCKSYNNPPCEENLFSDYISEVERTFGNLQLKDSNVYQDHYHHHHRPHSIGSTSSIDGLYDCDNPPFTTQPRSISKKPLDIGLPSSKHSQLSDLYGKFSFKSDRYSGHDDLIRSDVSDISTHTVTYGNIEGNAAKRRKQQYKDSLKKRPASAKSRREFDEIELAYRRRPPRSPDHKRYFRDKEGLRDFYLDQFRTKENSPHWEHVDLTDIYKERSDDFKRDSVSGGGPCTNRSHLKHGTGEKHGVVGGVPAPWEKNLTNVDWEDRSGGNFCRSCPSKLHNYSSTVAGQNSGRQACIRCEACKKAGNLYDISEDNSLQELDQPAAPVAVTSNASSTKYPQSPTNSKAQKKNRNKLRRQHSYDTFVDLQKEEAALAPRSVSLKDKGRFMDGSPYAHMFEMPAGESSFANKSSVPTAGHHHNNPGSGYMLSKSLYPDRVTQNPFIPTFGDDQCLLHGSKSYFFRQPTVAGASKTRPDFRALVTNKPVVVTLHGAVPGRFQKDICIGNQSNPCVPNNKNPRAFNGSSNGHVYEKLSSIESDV
experimentalEndpoint: IC50 (µM)
Numbers only; they are read as µM.

Prompt: Supply IC50 value. Item: CC(=O)[C@H]1CC[C@H]2[C@@H]3CC[C@@H]4C[C@H](OC(=O)C(C)CC(=O)O)CC[C@]4(C)[C@H]3CC[C@]12C (stereo partly drawn) [Example 19]
Response: 30

Prompt: Supply IC50 value. Item: CC(=O)[C@H]1CC[C@H]2[C@@H]3CC[C@@H]4C[C@H](OC(=O)CCCCCCC(=O)O)CC[C@]4(C)[C@H]3CC[C@]12C [Example 15]
Response: 175

Prompt: Supply IC50 value. Item: CC(=O)[C@H]1CC[C@H]2[C@@H]3CC[C@@H]4C[C@H](OC(=O)[C@@H](N)CCC(=O)O)CC[C@]4(C)[C@H]3CC[C@]12C [Example 9]
Response: 73

----------
molecular target: recombinant NR1/NR2B receptors (Rattus norvegicus, UniProt P35439+Q00960); test: Patch-clamp, inhibition of glutamate responses of recombinant NMDA receptors in transfected HEK293 cells; conditions: calculated from relative inhibition with Hill's coefficient 1.2
Please assign 0 whenever IC50 is at or above 100 µM, and 1 whenever it is below.

Prompt: Report whether reported IC50 is lower than 100 µM (strictly) for `CC(=O)[C@H]1CC[C@H]2[C@@H]3CC[C@@H]4C[C@H](OC(=O)[C@@H](N)CC(=O)O)CC[C@]4(C)[C@H]3CC[C@]12C`
Response: 1

Prompt: Report whether reported IC50 is lower than 100 µM (strictly) for COC(=O)CN[C@@H]1CC[C@@]2(C)[C@H](CC[C@@H]3[C@@H]2CC[C@]2(C)[C@@H](C(C)=O)CC[C@@H]32)C1.Cl [Example 26, hydrochloride]
Response: 0

Prompt: Report whether reported IC50 is lower than 100 µM (strictly) for `CC(=O)[C@H]1CC[C@H]2[C@@H]3CC[C@@H]4C[C@H](OC(=O)CCCCC(=O)O)CC[C@]4(C)[C@H]3CC[C@]12C`
Response: 1

Prompt: Report whether reported IC50 is lower than 100 µM (strictly) for `CC(=O)[C@H]1CC[C@H]2[C@@H]3CC[C@@H]4C[C@H](OC(=O)CCCCCC(=O)O)CC[C@]4(C)[C@H]3CC[C@]12C`
Response: 0

Prompt: Report whether reported IC50 is lower than 100 µM (strictly) for `CC(=O)[C@H]1CC[C@H]2[C@@H]3CC[C@@H]4C[C@H](OC(=O)/C=C\C(=O)O)CC[C@]4(C)[C@H]3CC[C@]12C`
Response: 1

----------
Experiment: Pharmacokinetics in plasma and brain after i.p. injection
Type: in vivo, rat
Details: male, Long-Evans, rat, intraperitoneal, 1 mg/kg; plasma, estimated
Experimental: In the experiment 40 adult Long-Evans male rats from breeding colony of Institute of Physiology AS CR v.v.i., Prague were used. Rats were treated i.p. with a dose 1 mg/kg of compound from example 9 dissolved in 72 mM of hydroxypropyl-β-cyclodextrine saline solution. […] The concentrations of compound from example 9 in rat brain and plasma samples were measured by high performance liquid chromatography (HPLC) coupled with mass spectrometry (Agilent 6320 Ion Trap). […]
experimentalEndpoint: half-life (h)
Numbers only; they are read as h.

Prompt: Supply half-life value. Item: `CC(=O)[C@H]1CC[C@H]2[C@@H]3CC[C@@H]4C[C@H](OC(=O)[C@@H](N)CCC(=O)O)CC[C@]4(C)[C@H]3CC[C@]12C`
Response: 4.45

----------
Assay: Pharmacokinetics in plasma and brain after i.p. injection
Type: in vivo, rat
Conditions: male, Long-Evans, plasma, ip; rat, 1 mg/kg i.p.; read-out: Tmax in plasma (converted)
Experimental: In the experiment 40 adult Long-Evans male rats from breeding colony of Institute of Physiology AS CR v.v.i., Prague were used. Rats were treated i.p. with a dose 1 mg/kg of compound from example 9 dissolved in 72 mM of hydroxypropyl-β-cyclodextrine saline solution. […] The concentrations of compound from example 9 in rat brain and plasma samples were measured by high performance liquid chromatography (HPLC) coupled with mass spectrometry (Agilent 6320 Ion Trap). […]
experimentalEndpoint: Tmax (min)
Numbers only; they are read as min.

Prompt: Supply Tmax value. Item: `CC(=O)[C@H]1CC[C@H]2[C@@H]3CC[C@@H]4C[C@H](OC(=O)[C@@H](N)CCC(=O)O)CC[C@]4(C)[C@H]3CC[C@]12C`
Response: 15

----------
experiment: Pharmacokinetics in plasma and brain after i.p. injection; type: in vivo, rat; conditions: male, Long-Evans, brain, ip; rat, 1 mg/kg i.p.; read-out: Tmax in brain (converted)
experimentalEndpoint: Tmax
Quick note: unit goes after the number.

Prompt: Supply Tmax value. Item: `CC(=O)[C@H]1CC[C@H]2[C@@H]3CC[C@@H]4C[C@H](OC(=O)[C@@H](N)CCC(=O)O)CC[C@]4(C)[C@H]3CC[C@]12C`
Response: 1 h

----------
Please go through the items and note down their Relative inhibition effect (%).
target: recombinant NR1/NR2B receptors (Rattus norvegicus, UniProt P35439+Q00960); construct: expressed in transfected cells; host or cells: HEK293 cells (ATCC CRL1573); test: Patch-clamp, inhibition of glutamate responses of recombinant NMDA receptors in transfected HEK293 cells; format: cell-based; settings: responses to 1 mM glutamate, -60 mV, HEK293 NR1-1a/NR2B; steroid 50, 100 or 200 μM
Numbers only; they are read as %.

Prompt: Supply Relative inhibition effect (%) value. Item: `CC(=O)[C@H]1CC[C@H]2[C@@H]3CC[C@@H]4C[C@H](OC(=O)CCCCC(=O)O)CC[C@]4(C)[C@H]3CC[C@]12C`
Response: 87.3

Prompt: Supply Relative inhibition effect (%) value. Item: `CC(=O)[C@H]1CC[C@H]2[C@@H]3CC[C@@H]4C[C@H](OC(=O)[C@@H](N)CCC(=O)O)CC[C@]4(C)[C@H]3CC[C@]12C`
Response: 77.1

Prompt: Supply Relative inhibition effect (%) value. Item: `COC(=O)CN[C@@H]1CC[C@@]2(C)[C@H](CC[C@@H]3[C@@H]2CC[C@]2(C)[C@@H](C(C)=O)CC[C@@H]32)C1.Cl`
Response: 43.4

Prompt: Supply Relative inhibition effect (%) value. Item: `CC(=O)[C@H]1CC[C@H]2[C@@H]3CC[C@@H]4C[C@H](OC(=O)CCCCCC(=O)O)CC[C@]4(C)[C@H]3CC[C@]12C`
Response: 61.5

Prompt: Supply Relative inhibition effect (%) value. Item: `CC(=O)[C@H]1CC[C@H]2[C@@H]3CC[C@@H]4C[C@H](OC(=O)CCCCCCC(=O)O)CC[C@]4(C)[C@H]3CC[C@]12C`
Response: 54.0

Prompt: Supply Relative inhibition effect (%) value. Item: `CC(=O)[C@H]1CC[C@H]2[C@@H]3CC[C@@H]4C[C@H](OC(=O)/C=C\C(=O)O)CC[C@]4(C)[C@H]3CC[C@]12C`
Response: 81.6

Prompt: Supply Relative inhibition effect (%) value. Item: CC(=O)[C@H]1CC[C@H]2[C@@H]3CC[C@@H]4C[C@H](OC(=O)C(C)CC(=O)O)CC[C@]4(C)[C@H]3CC[C@]12C (some centres unmarked)
Response: 80.9

Prompt: Supply Relative inhibition effect (%) value. Item: `CC(=O)[C@H]1CC[C@H]2[C@@H]3CC[C@@H]4C[C@H](OC(=O)[C@@H](N)CC(=O)O)CC[C@]4(C)[C@H]3CC[C@]12C`
Response: 83.6

----------
Experiment: Pharmacokinetics in plasma and brain after i.p. injection
Type: in vivo, rat
Conditions: male, Long-Evans, rat, ip, 1 mg/kg; plasma, estimated; read-out: AUC0_inf i.p. (converted)
Procedure: In the experiment 40 adult Long-Evans male rats from breeding colony of Institute of Physiology AS CR v.v.i., Prague were used. Rats were treated i.p. with a dose 1 mg/kg of compound from example 9 dissolved in 72 mM of hydroxypropyl-β-cyclodextrine saline solution. […] The concentrations of compound from example 9 in rat brain and plasma samples were measured by high performance liquid chromatography (HPLC) coupled with mass spectrometry (Agilent 6320 Ion Trap). […]
experimentalEndpoint: AUC (ng·h/mL)
Numbers only; they are read as ng·h/mL.

Prompt: Supply AUC value. Item: CC(=O)[C@H]1CC[C@H]2[C@@H]3CC[C@@H]4C[C@H](OC(=O)[C@@H](N)CCC(=O)O)CC[C@]4(C)[C@H]3CC[C@]12C [Example 9]
Response: 1260

Numbers sourced from patent US8575376B2.
